meta.source: PubChem BioAssay (NCI)

- Tested on: KM12 colon
- test_method_notes: NCI tumour cell line growth inhibition, 48 h
parameter_measured: TGI

Recorded TGI, per entry:
>>> result("Cc1cc2c(C)n(Cc3ccc(Cl)cc3Cl)nc2c(C#N)c1C")
"> 100 µM"
>>> result("Cn1c(/C=C(\\O)c2ccc(Cl)cc2)nc2ccccc21")
"> 100 µM"
>>> result("Fc1ccc2nc3n(c2c1)C(c1c(F)cccc1F)SC3 (stereo not given)")
"> 100 µM"
>>> result("COc1ccc2[nH]c3c(c2c1)CCn1c-3nc2ccccc2c1=O")
"> 25 µM"

Task: GET TGI where system = KM12 colon and item = C=C1COC(/C=C(\C)CC/C=C(\C)CCl)C1 (stereo not given)
Output: > 100 µM

Task: GET TGI where system = KM12 colon and item = CC(=O)C1=CSC2[C@H](NC(=O)Cc3ccccc3)C(=O)N2C1C(=O)OC(c1ccccc1)c1ccccc1 (stereo not given in full)
Output: > 100 µM

Task: GET TGI where system = KM12 colon and item = C[C@]12CCC3[C@@H](CC[C@@H]4c5nonc5CC[C@]34C)C1CCC(=O)N2 (stereo not given in full)
Output: > 100 µM

Task: GET TGI where system = KM12 colon and item = CC1C(O)C2(Oc3cc4c(c5c3[C@@H](CC5O)[C@H]2C)CCC2Cc3nc5c(nc3C[C@@]42C)CC2CCC3C4=C[C@H]6O[C@@]7(O[C@@](C)(CO)C[C@@H]7O)C(C)[C@@]6(O)[C@]4(C)[C@@H](O)CC3[C@]2(C)C5)OC1(C)C (stereo not given in full)
Output: > 3.67 µM

Task: GET TGI where system = KM12 colon and item = "Cc1cc(N/N=C/c2nc(-c3ccc(Br)cc3)oc2C)c2cc(Cl)ccc2n1"
Output: > 100 µM

Task: GET TGI where system = KM12 colon and item = "COc1cc(C(=O)C/C(CCC(=O)Nc2ccccc2[N+](=O)[O-])=N\NC(=O)CC#N)ccc1O"
Output: > 100 µM
